Experiment: Cell Viability - LYMP2-004 (AID 966);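 note: cells exposed to compound for 24 h; nearly all actives have a fitted effect of over 65% in size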
Conditions: LYMP2-004 lymphoblastoid cell viability, qHTS; series mostly up to 92.2 µM
Results filed as inconclusive are left out. Calls of active or inactive are those of the source. Calls come from the whole dose curve; as a rule, active = well fitted cell-killing curve with a large enough effect; inconclusive = small, poorly fitted or top-dose-only effect, or effect the other way; inactive = no such curve, though single readings can be large or run the other way.
Outcomes: T (active), F (inactive)

# MOLECULE, CLASS ASSIGNMENT
data = [
    ("CCCCOCCO", "F"),
    ("Cc1ccc([N+](=O)[O-])cc1N", "F"),
    ("CCCCCCCCO", "F"),
    ("ClCCCl", "F"),
    ("CCC(C)c1ccccc1O (stereo not drawn)", "F"),
    ("O=C(O)c1ccccc1C(c1ccc(O)cc1)c1ccc(O)cc1", "F"),
    ("CC1(C)CC(N=C=O)CC(C)(CN=C=O)C1 (stereo not drawn)", "F"),
    ("O=C(O)c1ccc(O)cc1O", "F"),
    ("NC1=NC(S)C2N=CN=C2N1 (stereo not drawn)", "T"),
    ("COc1ccc2nc(N)sc2c1", "F"),
    ("CCCCC(CC)CN (stereo not drawn)", "F"),
    ("COC(=O)c1ccc(C=O)cc1", "F"),
    ("O=C(O)c1ccccc1", "F"),
    ("C=CCc1ccc(OC)c(OC)c1", "F"),
    ("C=CC(=C)CCC=C(C)C", "F"),
    ("Cc1ccc(N)c([N+](=O)[O-])c1", "F"),
    ("O[C@@H]([C@H](O)[C@@H](O)CBr)[C@@H](O)CBr", "F"),
    ("O=C1c2ccccc2C(=O)C1c1ccc2ccccc2n1", "F"),
]
